B1: LINE1-mini (parent)
chain: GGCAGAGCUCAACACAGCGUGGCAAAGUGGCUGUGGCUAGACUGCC

Variants of: B1
Experiment: self-cleavage, relative activity (ratio to wild type); higher = more cleavage; in vitro, sequencing; the parent is a self-cleaving ribozyme
RECORDED ENDPOINT: self-cleavage
Numbers only.

Some solved entries appear below for comparison.
RESIDUE SEQUENCE: GGCAGAGCUCAACACAGCGUGGCAAAGUGGCUGUGGCUCGACUUCC
self-cleavage: 0.1
--
RESIDUE SEQUENCE: UGCAGAGCUCAACACAGCGUGGCAAAGUGGCUGAGGCUAGACUGCC
self-cleavage: 0.05

Consider the following items and state reported self-cleavage for each.
1. GGCAGAGCUCAACACAGCGUGGCAAAGUGGCUGUGGCAAGAAUGCC
2. GGCAGAGCUCAACACAGCGUGUCAAAGUGGCUGUGGCAAGACUGCC
3. GGCAGAGCUCAACACAGCGUGGCAAAGAUGCUGUGGCUAGACUGCC
4. GGCUGAGCUCAACACAGCGUGGCAAAGAGGCUGUGGCUAGACUGCC
5. GGCUGAGCUCAACACAGCCUGGCAAAGUGGCUGUGGCUAGACUGCC
6. GGCAGAGCUCAGCACAGCCUGGCAAAGUGGCUGUGGCUAGACUGCC

A)
[0.1, 0.46, 0.41, 0.19, 0.05, 0.02]
